# study system: Pheromone binding protein 5 (Pbp5) (Bactrocera dorsalis, UniProt A0A6I9V7R6)
# Sequence (A0A6I9V7R6 21-147): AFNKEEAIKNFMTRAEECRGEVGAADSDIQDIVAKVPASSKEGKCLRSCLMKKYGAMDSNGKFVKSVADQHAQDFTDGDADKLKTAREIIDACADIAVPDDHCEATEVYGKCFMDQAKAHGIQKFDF
experimental readout: Kd (µM)
Answers are plain numbers, in µM.

Problem: Which value of Kd has been reported for c1ccc(Nc2cccc3ccccc23)cc1 in the records?
Result: 10.6

* * *

# study system: Pheromone binding protein 5 (Pbp5) mutant (Bactrocera dorsalis, UniProt A0A6I9V7R6, F147A/F31A/F95A/I28A)
# assay comment: direct fluorescence binding assay
experimental readout: Kd (µM)
Answers are plain numbers, in µM.

Problem: # Kd lookup, item c1ccc(Nc2cccc3ccccc23)cc1 [1-NPN, N-phenyl-1-naphthylamine]
Result: 33.9

The reported numbers originate from paper PMC11849186.
